Source listed as patent US4727080A.

system: Bacillus subtilis ATCC 6633; assay: "In vitro" MIC, Bacillus subtilis; format: cell-based; conditions: ATCC6633; Bacillus subtilis ATCC 6633; dextrose agar, 37° C., 20 hours; read-out: "In vitro" MIC
REPORTED PROPERTY: MIC

// below: answered compounds
CPD SMILES: Cn1cc(C(=O)O)c(=O)c2cc(F)c(-n3cccc3)cc21
MEASURED TARGET: Bacillus subtilis ATCC 6633
MIC: 0.125 µg/mL
//
CPD SMILES: CNn1cc(C(=O)O)c(=O)c2cc(F)c(-n3cccc3)cc21
MEASURED TARGET: Bacillus subtilis ATCC 6633
MIC: ≤ 0.062 µg/mL
//
CPD SMILES: O=C(O)c1cn(CC2CC2)c2cc(-n3cccc3)c(F)cc2c1=O
MEASURED TARGET: Bacillus subtilis ATCC 6633
MIC: 0.125 µg/mL
//
CPD SMILES: CCCn1cc(C(=O)O)c(=O)c2cc(F)c(-n3cccc3)cc21
MEASURED TARGET: Bacillus subtilis ATCC 6633
MIC: 0.125 µg/mL
//
CPD SMILES: O=C(O)c1cn(CCO)c2cc(-n3cccc3)c(F)cc2c1=O
MEASURED TARGET: Bacillus subtilis ATCC 6633
MIC: ≤ 0.062 µg/mL

MIC in this record for O=C(O)c1cn(CCF)c2cc(-n3cccc3)c(F)cc2c1=O : ≤ 0.031 µg/mL

get_value(item= C=Cn1cc(C(=O)O)c(=O)c2cc(F)c(-n3cccc3)cc21 , readout=MIC) returns ≤ 0.062 µg/mL

Measured MIC of CCNn1cc(C(=O)O)c(=O)c2cc(F)c(-n3cccc3)cc21 : ≤ 0.062 µg/mL

The recorded MIC for O=C(O)c1cn(C2CC2)c2cc(-n3cccc3)c(F)cc2c1=O is 0.25 µg/mL
